inhibition listing for selected molecules.
biological target: MAP/microtubule affinity-regulating kinase 3 (Homo sapiens) (UniProt P27448); conditions: at 1 µM;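 note: reported values are averaged percent inhibition of MARK3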
Sequence (P27448 whole entry, looked up): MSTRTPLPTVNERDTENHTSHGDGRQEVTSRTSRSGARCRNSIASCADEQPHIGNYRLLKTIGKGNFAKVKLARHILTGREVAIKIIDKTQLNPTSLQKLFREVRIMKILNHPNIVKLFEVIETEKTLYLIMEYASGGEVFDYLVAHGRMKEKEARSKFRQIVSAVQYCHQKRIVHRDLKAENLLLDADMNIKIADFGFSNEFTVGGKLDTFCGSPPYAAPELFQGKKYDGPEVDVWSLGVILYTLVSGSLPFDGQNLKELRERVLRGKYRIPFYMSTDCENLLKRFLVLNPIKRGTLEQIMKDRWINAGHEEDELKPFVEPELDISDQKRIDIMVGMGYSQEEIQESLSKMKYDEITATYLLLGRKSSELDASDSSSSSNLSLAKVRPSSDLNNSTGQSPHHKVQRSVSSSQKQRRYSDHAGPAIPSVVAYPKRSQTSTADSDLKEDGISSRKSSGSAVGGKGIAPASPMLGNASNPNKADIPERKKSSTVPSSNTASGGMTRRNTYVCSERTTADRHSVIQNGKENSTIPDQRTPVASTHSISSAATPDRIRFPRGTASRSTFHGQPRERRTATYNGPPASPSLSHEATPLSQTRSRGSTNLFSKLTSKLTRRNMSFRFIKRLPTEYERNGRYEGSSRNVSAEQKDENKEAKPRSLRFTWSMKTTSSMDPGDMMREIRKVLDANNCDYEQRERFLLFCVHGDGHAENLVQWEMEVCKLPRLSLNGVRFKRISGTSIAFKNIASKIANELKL
A complete answer gives the number followed by the unit.

[ask] Entry NS(=O)(=O)c1ccc(N/N=C2\C(=O)Nc3ccc(C(=O)NCCCn4ccnc4)cc32)cc1 : reported inhibition = ?
[reply] 5.47%

[ask] Entry Nc1nccc(-c2c(-c3ccc(F)cc3)ncn2C2CCC(O)CC2)n1 (stereo not given) : reported inhibition = ?
[reply] 0.22%

[ask] Entry Fc1ccc(-c2ncn(C3CCNCC3)c2-c2ccnc(Oc3ccc(F)c(F)c3)n2)cc1 : reported inhibition = ?
[reply] 12.2%

[ask] Entry C#Cc1cccc(Nc2ncnc3ccc(OCCCCNCCS(C)(=O)=O)cc23)c1 : reported inhibition = ?
[reply] 6.08%

Kindly consider the entry below.
[ask] Entry CCC(=O)Nc1ccc(C)c(-c2ccc(C(=O)NCC3CC3)cc2)c1 : reported inhibition = ?
[reply] -1.15%

----------
inhibition listing for selected molecules.
Target: Aurora kinase A (Homo sapiens);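 note: each reported value is a mean percent inhibition of Aurora-A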
Sequence (whole entry): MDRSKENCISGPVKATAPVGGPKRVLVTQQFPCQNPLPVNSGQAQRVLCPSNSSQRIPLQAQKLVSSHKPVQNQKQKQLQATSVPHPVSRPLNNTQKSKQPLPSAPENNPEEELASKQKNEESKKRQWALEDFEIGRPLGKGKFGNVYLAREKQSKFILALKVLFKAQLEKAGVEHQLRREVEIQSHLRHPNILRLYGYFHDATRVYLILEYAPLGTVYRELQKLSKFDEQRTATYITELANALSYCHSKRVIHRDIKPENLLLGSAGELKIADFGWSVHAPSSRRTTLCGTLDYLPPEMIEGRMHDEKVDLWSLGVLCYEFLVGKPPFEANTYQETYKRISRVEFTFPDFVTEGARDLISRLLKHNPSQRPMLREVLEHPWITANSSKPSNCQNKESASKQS
Settings: at 0.1 µM
Entry rule: numbers only, all in %.

Answered cases to consult:
[ask] Entry CCN(CC)Cc1ccc(Nc2nccc(-c3cnn4ncccc34)n2)cc1 : reported inhibition = ?
[reply] 4.39

[ask] Entry CNC(=O)c1cncc(/C=C/c2c(C)cccc2C)c1 : reported inhibition = ?
[reply] -1.77

[ask] Entry CCS(=O)(=O)c1ccc(OC)c(Nc2ncc(-c3cccc(-c4ccccc4F)c3)o2)c1 : reported inhibition = ?
[reply] 0.79

[ask] Entry N#Cc1ccc(Oc2nccc(-c3c(-c4ccc(F)cc4)ncn3C3CCNCC3)n2)cc1 : reported inhibition = ?
[reply] 3.21

More entries:
[ask] Entry COc1ccc2ncn(-c3cc(O[C@H](C)c4ccccc4Cl)c(C(N)=O)s3)c2c1 : reported inhibition = ?
[reply] -1.27

----------
molecular target: Serine/threonine-protein kinase DCLK2 (Homo sapiens) (UniProt Q8N568); settings: at 1 µM
Sequence (Q8N568 whole entry): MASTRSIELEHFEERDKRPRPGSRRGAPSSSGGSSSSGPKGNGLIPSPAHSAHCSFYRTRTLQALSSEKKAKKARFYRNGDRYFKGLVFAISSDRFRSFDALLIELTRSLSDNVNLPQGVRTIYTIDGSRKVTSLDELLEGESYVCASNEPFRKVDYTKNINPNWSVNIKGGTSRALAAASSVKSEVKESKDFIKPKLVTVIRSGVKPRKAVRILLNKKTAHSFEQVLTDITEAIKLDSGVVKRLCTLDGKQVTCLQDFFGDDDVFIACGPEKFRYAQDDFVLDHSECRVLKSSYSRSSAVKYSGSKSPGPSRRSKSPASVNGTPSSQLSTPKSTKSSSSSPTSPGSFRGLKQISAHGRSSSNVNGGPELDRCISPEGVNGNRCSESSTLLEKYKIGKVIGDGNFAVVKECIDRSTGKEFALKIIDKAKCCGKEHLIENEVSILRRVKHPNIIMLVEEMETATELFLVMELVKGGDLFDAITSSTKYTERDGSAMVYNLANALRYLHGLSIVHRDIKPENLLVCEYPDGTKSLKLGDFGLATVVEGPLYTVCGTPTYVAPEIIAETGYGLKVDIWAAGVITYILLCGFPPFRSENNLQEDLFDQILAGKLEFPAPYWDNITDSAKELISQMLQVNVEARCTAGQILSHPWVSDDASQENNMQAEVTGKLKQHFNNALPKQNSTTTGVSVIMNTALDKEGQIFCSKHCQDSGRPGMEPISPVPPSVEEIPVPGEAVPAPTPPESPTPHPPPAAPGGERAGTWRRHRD
inhibition listing for selected compounds.
Entry rule: numbers only, all in %.

Answered cases to consult:
[ask] Item: c1ccc(Oc2ccc(Nc3ncc(-c4ccccc4)o3)cc2)cc1 Test system: Serine/threonine-protein kinase DCLK2 (Homo sapiens) (UniProt Q8N568) Read-out: inhibition Value: ?
[reply] -1.82

[ask] Item: COc1cc2ncn(-c3cc(OCc4cccs4)c(C(N)=O)s3)c2cc1OC Test system: Serine/threonine-protein kinase DCLK2 (Homo sapiens) (UniProt Q8N568) Read-out: inhibition Value: ?
[reply] -0.46

[ask] Item: FC(F)(F)c1cccc(Nc2nccc(-c3cnn4nc(-c5ccccc5)ccc34)n2)c1 Test system: Serine/threonine-protein kinase DCLK2 (Homo sapiens) (UniProt Q8N568) Read-out: inhibition Value: ?
[reply] 2.76

[ask] Item: NS(=O)(=O)c1ccc(N/N=C2\C(=O)Nc3ccc(-c4cnco4)cc32)cc1 Test system: Serine/threonine-protein kinase DCLK2 (Homo sapiens) (UniProt Q8N568) Read-out: inhibition Value: ?
[reply] -2.47

[ask] Item: O=C(Nc1n[nH]c2nc(-c3ccco3)ccc12)C1CC1 Test system: Serine/threonine-protein kinase DCLK2 (Homo sapiens) (UniProt Q8N568) Read-out: inhibition Value: ?
[reply] -0.3

Kindly consider the entry below.
[ask] Item: CNC(=O)c1cncc(/C=C/c2c(C)cccc2C)c1 Test system: Serine/threonine-protein kinase DCLK2 (Homo sapiens) (UniProt Q8N568) Read-out: inhibition Value: ?;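 note: each value is a mean percent inhibition of DCLK2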
[reply] -2.53
